As shown below, each of these compounds has a reported Z-score value.
target: Human IP6K1 (Homo sapiens, UniProt Q92551); construct: GST (N, cleaved yes); made in house; host or cells: C43 E. coli, pGEX-6P-2; test: IP6K1 high-throughput screen of the Sigma LOPAC (ADP-Glo Max, single point); assay type: biochemical; details: LOPAC single-point screen; Z-score relative to plate average and StDev;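 further: final compound concentration 10µM in 5% DMSO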
Sequence (Q92551 whole entry): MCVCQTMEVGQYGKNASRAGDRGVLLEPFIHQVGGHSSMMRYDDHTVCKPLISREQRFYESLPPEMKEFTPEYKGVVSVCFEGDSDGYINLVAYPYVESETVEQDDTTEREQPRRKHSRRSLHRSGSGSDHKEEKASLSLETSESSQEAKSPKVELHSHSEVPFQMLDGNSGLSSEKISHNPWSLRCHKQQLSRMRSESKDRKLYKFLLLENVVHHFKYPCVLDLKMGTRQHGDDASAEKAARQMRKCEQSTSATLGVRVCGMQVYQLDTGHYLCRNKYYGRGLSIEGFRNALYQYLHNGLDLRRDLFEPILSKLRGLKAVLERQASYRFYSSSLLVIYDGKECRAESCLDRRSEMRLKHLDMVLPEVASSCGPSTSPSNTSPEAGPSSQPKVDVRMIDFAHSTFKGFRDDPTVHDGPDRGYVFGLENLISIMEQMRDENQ
Where a name gives a salt, the structure may show the parent alone.

COc1cccc(NC(=O)/C=C/c2ccc(Cl)cc2)c1 [SB-366791]
-0.6757

input: Field request: Z-score | item: Oc1ccccc1O [Pyrocatechol]
output: -1.514

input: Field request: Z-score | item: Cc1cccc(C)c1OCC(C)N.Cl (stereo not shown) [Mexiletene hydrochloride]
output: -0.6658

input: Field request: Z-score | item: [H]/N=C(/NC)NCCC[C@H](N)C(=O)O [NG-Monomethyl-L-arginine acetate]
output: -0.484

input: Field request: Z-score | item: O=C(OCCN1CCCCC1)c1c[nH]c2ccccc12 [SB 203186]
output: -1.154

input: Field request: Z-score | item: Cl.OC1CCCCC1N1CCC(c2ccccc2)CC1 (racemic) [(±)-Vesamicol hydrochloride]
output: -0.5169

input: Field request: Z-score | item: CN(C)CCC=C1c2ccccc2CCc2ccccc21 [Amitriptyline hydrochloride]
output: -0.5469

input: Field request: Z-score | item: CCCn1c(=O)c2[nH]c(C3CCCC3)nc2n(CCCOC(=O)c2ccc(S(=O)(=O)F)cc2)c1=O [FSCPX]
output: -0.7803

input: Field request: Z-score | item: C/C=C1\C(=O)C[C@H]2[C@@H]3CCC4=CC(=O)CC[C@]4(C)[C@H]3CC[C@]12C [(Z)-Gugglesterone]
output: -1.1365

input: Field request: Z-score | item: N.N.[Cl][Pt][Cl] [Cisplatin]
output: -0.7984

# credit: paper PMC5706701
